The entries that follow carry pKi values tested on human PDE10A2 (Homo sapiens (Human), UniProt Q9Y233), drawn from several published reports.
Please treat pKi as minus the base-10 logarithm of the molar concentration.

Cc1ncc(C2CCC3(CC2)OCCO3)c(OC[C@H]2C[C@@H]2c2ccc3ccccc3n2)n1 :: 10.22
COc1ccc([C@H]2C[C@@H]2COc2nc(C)ncc2-c2cnc(C(=O)O)cn2)nc1 :: 8.90
COc1ccc([C@H]2C[C@@H]2COc2nc(C)ncc2-c2ccn(C)c(=O)c2)nc1 :: 8.81

Output reported pKi of the molecule COc1ccc([C@H]2C[C@@H]2COc2nc(C)ncc2-c2cc(Cl)ncc2C(F)(F)F)nc1 on human PDE10A2 (Homo sapiens (Human), UniProt Q9Y233).
9.00

Output reported pKi of the molecule COc1ccc([C@H]2C[C@@H]2COc2nc(C)ncc2-c2cc(OC)c(=O)n(C)c2)nc1 on human PDE10A2 (Homo sapiens (Human), UniProt Q9Y233).
9.82

Output reported pKi of the molecule COc1ccc(C2CC2c2cc(-n3nc(C)nc3Cc3ccc(OC)c(OC)c3)nc(C)n2)nc1 (centres unmarked) on human PDE10A2 (Homo sapiens (Human), UniProt Q9Y233).
9.41

Output reported pKi of the molecule CNC(=O)c1ccc(-c2cnc(C)nc2OC[C@H]2C[C@@H]2c2ccc(OC)cn2)cn1 on human PDE10A2 (Homo sapiens (Human), UniProt Q9Y233).
8.63

Output reported pKi of the molecule Cc1nc(NCc2nnc(C3CC3)s2)cc(OC[C@H]2C[C@@H]2c2ccccn2)n1 on human PDE10A2 (Homo sapiens (Human), UniProt Q9Y233).
8.42

* * *

The entries that follow carry pKi values tested on UniProt:Q9Y233, drawn from several published reports.
Please treat pKi as minus the base-10 logarithm of the molar concentration.

COc1ccc([C@H]2C[C@@H]2COc2nc(C)ncc2-c2ccc3[nH]ccc3c2)nc1 :: 8.67
COc1ccc([C@H]2C[C@@H]2COc2nc(C)ncc2-c2ccc(-c3nn[nH]n3)nc2)nc1 :: 9.89
Cc1ncc(-c2cc(=O)[nH]cc2C)c(OC[C@H]2C[C@@H]2c2ccccn2)n1 :: 8.08
COc1ccc(CCCCc2cc(NCc3sc(C)nc3C)n3nccc3n2)nc1 :: 9.43
Cc1nc(C)n(-c2cc([C@@H]3C[C@H]3c3nc4ccccc4n3C)nc(OCC3CCO3)n2)n1 (stereo partly shown) :: 8.89
COc1ccc([C@H]2C[C@@H]2COc2nc(N)nc(NCc3nnc(C)s3)c2F)nc1 :: 9.30

Output reported pKi of the compound Cc1nc(NCc2nnc(C)s2)cc(OC[C@H]2C[C@@H]2c2ccc(-c3cccnc3)cn2)n1 (stereo in doubt) on UniProt:Q9Y233.
9.00

Output reported pKi of the compound Cc1ccc([C@H]2C[C@@H]2COc2nc(C)ncc2-c2cn(C)nc2C(F)F)nc1 on UniProt:Q9Y233.
9.40

Output reported pKi of the compound COc1ccc([C@H]2C[C@@H]2COc2nc(C)ncc2-c2cc(=O)[nH]n2C)nc1 on UniProt:Q9Y233.
7.64

Output reported pKi of the compound Cc1ccc([C@H]2C[C@@H]2COc2cc(Oc3ccc(C)nc3)n3nccc3n2)nc1 on UniProt:Q9Y233.
7.70

Output reported pKi of the compound Cc1nc(C)n(-c2cc([C@H]3C[C@@H]3c3nc4ccccc4n3C)nc(N(C)C)n2)n1 (relative stereo) on UniProt:Q9Y233.
8.92

Output reported pKi of the compound COc1ccc([C@H]2C[C@@H]2COc2nc(C)ncc2C2CCC(=O)C2)nc1 (stereo partly shown) on UniProt:Q9Y233.
8.08

Output reported pKi of the compound COc1ccc([C@H]2C[C@@H]2COc2nc(C)ncc2-c2noc(CO)n2)nc1 on UniProt:Q9Y233.
7.52

Output reported pKi of the compound CCc1ccc(-c2cnc(C)nc2OC[C@H]2C[C@@H]2c2ccc3ccccc3n2)cc1 (single isomer, unassigned) on UniProt:Q9Y233.
8.10

Output reported pKi of the compound Cc1nc([C@@H]2C[C@H]2c2nc3ccccc3n2C)cc(-n2nc(C)nc2[C@@H]2CCCO2)n1 on UniProt:Q9Y233.
8.24

Output reported pKi of the compound Cc1ncc(-c2ccc(C(C)O)cc2)c(OC[C@H]2C[C@@H]2c2ccccn2)n1 (stereo partly shown) on UniProt:Q9Y233.
8.30

* * *

The entries that follow carry Ki values tested on human PDE10A2 (Homo sapiens (Human)), drawn from several published reports.
Threshold 1 nM: Ki strictly smaller gives YES, otherwise NO.

As a guide, the following entries are already answered.
Cc1nnc(CNc2nc(N)nc(OC[C@H]3C[C@@H]3c3ccc4c(n3)CCC4)c2F)s1 :: YES
COc1ccc([C@H]2C[C@@H]2COc2nc(C)ncc2C2CCCC(=O)C2)nc1 (some centres unmarked) :: YES
Cc1nc(C)n(-c2cc([C@H]3C[C@@H]3c3nc4ccccc4n3C)nc(OCC3CC3)n2)n1 (relative stereo) :: NO
COc1ccc([C@H]2C[C@@H]2COc2nc(C)ncc2-c2cc(=O)n(C)cn2)nc1 :: NO
Cc1nc(C)c(CNc2cc(C(=O)NCCc3ccccn3)nc3ccnn23)s1 :: NO

Hello, is Ki of the following compound strictly smaller than 1 nM? Cc1nc(N2CC(c3nc4ccccc4n3C)C2)cc(-n2nc(C)c(C)c2C)n1
YES

Hello, is Ki of the following compound strictly smaller than 1 nM? COc1ccc(Cc2nc(C)nn2-c2cc(CCc3ccc(C)cn3)nc(C)n2)cc1OC
YES

Hello, is Ki of the following compound strictly smaller than 1 nM? Cc1ccnc([C@H]2C[C@@H]2COc2nc(C)ncc2-c2ccc(C(C)(C)O)nc2)c1 (single isomer, unassigned)
NO

* * *

The entries that follow carry pKi values tested on human PDE10A2 (Homo sapiens (Human), UniProt Q9Y233), drawn from several published reports.
Please treat pKi as minus the base-10 logarithm of the molar concentration.

Cc1cccc([C@H]2C[C@@H]2COc2nc(C)ncc2C2CCC(=O)CC2)n1 :: 7.73

Output reported pKi of the molecule Cc1nc(N2CC(c3nc4ccccc4n3C)C2)cc(-n2nc(C)nc2Cc2ccc(F)cc2)n1 on human PDE10A2 (Homo sapiens (Human), UniProt Q9Y233).
9.92

Output reported pKi of the molecule COc1cc(-c2cnc(C)nc2OC[C@H]2C[C@@H]2c2ccc(C)cn2)cn(C)c1=O on human PDE10A2 (Homo sapiens (Human), UniProt Q9Y233).
9.46

Output reported pKi of the molecule Cc1ncc(-c2ccc(=O)n(C)c2C)c(OC[C@H]2C[C@@H]2c2ccc3c(n2)CCC3)n1 on human PDE10A2 (Homo sapiens (Human), UniProt Q9Y233).
9.32

Output reported pKi of the molecule CCc1ccc([C@H]2C[C@@H]2COc2nc(C)ncc2-c2ccc(C(C)(C)O)nc2)nc1 (single isomer, unassigned) on human PDE10A2 (Homo sapiens (Human), UniProt Q9Y233).
10.30

Output reported pKi of the molecule Cc1ncc(-c2cc(=O)n(C)cc2C)c(OC[C@H]2C[C@@H]2c2ccccn2)n1 on human PDE10A2 (Homo sapiens (Human), UniProt Q9Y233).
7.78

Output reported pKi of the molecule Cc1nc(C)n(-c2cc(N3CC(c4nc5ccccc5n4C)C3)nc(CC#N)n2)n1 on human PDE10A2 (Homo sapiens (Human), UniProt Q9Y233).
8.89

Output reported pKi of the molecule COc1ccc([C@H]2C[C@@H]2COc2nc(C)ncc2-c2cc(=O)[nH][nH]2)nc1 on human PDE10A2 (Homo sapiens (Human), UniProt Q9Y233).
9.05

Output reported pKi of the molecule Cc1ccc([C@H]2C[C@@H]2COc2nc(C)ncc2-c2ccncc2C)nc1 on human PDE10A2 (Homo sapiens (Human), UniProt Q9Y233).
9.40

Output reported pKi of the molecule Cc1nc(C2CCOCC2)n(-c2cc(N3CC(c4nc5ccccc5n4C)C3)nc(C(F)(F)F)n2)n1 on human PDE10A2 (Homo sapiens (Human), UniProt Q9Y233).
8.74

* * *

The entries that follow carry pKi values tested on UniProtKB Q9Y233, drawn from several published reports.
pKi: −log10 of the molar value.
Label YES when pKi is at or above 9; otherwise label NO.

As a guide, the following entries are already answered.
COc1ccc([C@H]2C[C@@H]2COc2nc(C)ncc2-c2cc(=O)n(C)nc2O)nc1 :: NO
Cc1nc(-c2ccccc2C(=O)O)cc(N2CC(c3nc4ccccc4n3C)C2)n1 :: NO
Cc1nc(N2CC(c3nc4ccc(F)cc4[nH]3)C2)cc(-n2nc(C)nc2C)n1 :: NO

Given COc1ccc([C@H]2C[C@@H]2COc2nc(C)ncc2-c2nn[nH]c2CO)nc1 , state whether its pKi is at least 9.
NO

Given Cc1nc(NCc2ccncc2C)cc(OCC2CC2c2ccccn2)n1 (centres unmarked) , state whether its pKi is at least 9.
NO

Given Cc1ccc([C@H]2C[C@@H]2COc2nc(C)ncc2-c2ccc3[nH]ccc3c2)nc1 , state whether its pKi is at least 9.
NO

Given Cc1ncc(-c2ccn(C)c(=O)c2)c(OC[C@@H]2C[C@H]2c2ccc(F)cn2)n1 , state whether its pKi is at least 9.
NO

Given COc1ccc([C@H]2C[C@@H]2COc2nc(C)ncc2-c2cnco2)nc1 , state whether its pKi is at least 9.
NO

Given COc1ccc(-n2c(CCN3C(=O)c4cccc(O)c4C3=O)nc3ccccc3c2=O)cc1 , state whether its pKi is at least 9.
NO

Given Cc1nc([C@@H]2C[C@H]2c2nc3ccccc3n2C)cc(-n2nc(C)nc2C(C)(C)O)n1 , state whether its pKi is at least 9.
NO

Given COC(=O)Cn1ccc(-c2cnc(C)nc2OC[C@H]2C[C@@H]2c2ccc(OC)cn2)cc1=O , state whether its pKi is at least 9.
YES

Given COn1cc(-c2cnc(C)nc2OC[C@H]2C[C@@H]2c2ccc3ccccc3n2)ccc1=O , state whether its pKi is at least 9.
YES

Given COc1ccc([C@H]2C[C@@H]2COc2nc(C)ncc2C2CCC(=O)CC2)nc1 , state whether its pKi is at least 9.
NO
